System: T-47D breast
testDetails: NCI tumour cell line growth inhibition, 48 h
Listing of entries alongside the reported TGI.

# compound, measuredResult
rows = [
    ("CC1CCCCNC1=S (stereo not drawn)", "> 10 µM"),
    ("COc1ccc2[nH]c3c4[nH]c5ccc(OC)cc5c4c4c(c3c2c1)C(=O)NC4=O", "> 25 µM"),
]

Now look at this one.
Query: Entry CCCCC1Cc2ccccc2-c2nc3ccccc3n21 (stereo not drawn) has what TGI?
Response: 29.4 µM

###

Reported TGI is given for each of the following compounds.
Tested on: SF-268 CNS
testDetails: NCI tumour cell line growth inhibition, 48 h

Example compounds with recorded TGI:
# entrySmiles, systemUnderTest, measuredResult
measured = [
    ("CC(C)=C[C@H]1CCC2(OCCO2)[C@]1(C)COCc1ccccc1", "SF-268 CNS", "> 100 µM"),
    ("CCOC(=O)c1ccc(NCc2ccc3oc(=O)c(-c4ccccc4)nc3c2)cc1", "SF-268 CNS", "> 100 µM"),
]

Lab note: next compound to report on.
Query: # query: TGI of entry Nc1ccc(Cc2c(N)[nH]c(=O)[nH]c2=O)cc1
Response: > 100 µM

###

Test system: TK-10 renal
testDetails: NCI tumour cell line growth inhibition, 48 h
assayReadout: TGI

As a guide, the following entries are already answered.
# compound, TGI
rows = [
    ("CC1S/C(=N\\N=C2/C(=O)Nc3ccc(Br)cc32)N(C2CCCCC2)C1=O (configuration not stated)", "6.58 µM"),
    ("C(/C=C/Nc1ccc(Oc2ccccc2)cc1)=Nc1ccc(Oc2ccccc2)cc1", "34.7 µM"),
    ("S=c1ssc(N2CCOCC2)c1Cl", "> 100 µM"),
    ("COc1ccc(S(=O)(=O)c2ccccc2[N+](=O)[O-])cc1", "> 100 µM"),
    ("COc1c2c(cc3c1OCO3)[C@]13C=C[C@H](OC)C[C@H]1N(C2)CC3O (some centres not stated)", "> 100 µM"),
    ("CCOC(=O)CCC(=O)C1c2cccc(O)c2C(=O)c2c(O)cc(C)cc21 (configuration not stated)", "3.39 µM"),
    ("CCCCCCCCCCCCCCCC(=O)OCC(C[As](=O)(O)O)OC(=O)CCCCCCCCCCCCCCC (configuration not stated)", "> 100 µM"),
    ("CCOC(=O)C1CCN(S(=O)(=O)/N=C2/NC(=O)NC2=C(Cl)Cl)CC1", "> 100 µM"),
    ("O=c1cc(-c2ccc(Oc3ccccc3)cc2)[nH]c2cc3c(cc12)OCO3", "> 100 µM"),
    ("CCO/C=N\\C1=C(C#N)SC2=N/C(=C\\c3ccc(OC)cc3)C(=O)N21", "> 100 µM"),
]

Query: Item: CCOC(=O)/C(C)=C(/O)C(=O)OCC Test system: TK-10 renal Read-out: TGI Value: ?
Response: > 100 µM

Query: Form: Entry = CCc1nc2cc(F)c(/C=C/C(=O)NO)cc2c(=O)n1CCc1ccccc1 | System = TK-10 renal | TGI = ____
Response: 0.838 µM

Query: What is its TGI for TK-10 renal? Entry: Nc1ccccc1/C(O)=C1/CCOC1=O
Response: > 100 µM

Query: Which measured TGI belongs to O=C(N/N=C/c1cc(Br)ccc1O)N/N=C/c1cc(Br)ccc1O , tested on TK-10 renal?
Response: > 100 µM

Query: Could you share what TGI was measured for c1ccc(C2N3CCCCC3[C@@H]3c4[nH]c5ccccc5c4CCN23)nc1 (some centres not stated) , tested on TK-10 renal?
Response: > 100 µM

Query: Any idea what TGI came out for N#C/C(=C/NC(N)=S)C(N)=O on TK-10 renal?
Response: > 100 µM

Query: TGI of Cc1ccc(NC(=O)c2cccc(C(C)(C)C#N)c2)cc1Nc1ccc2ncn(C)c(=O)c2c1 on TK-10 renal?
Response: > 100 µM
